- Test system: CP192
- methodDescription: qHTS profiling for inhibitors of Plasmodium falciparum proliferation (AID 504749); note: nearly all actives have a fitted effect of over 60% in size; note: potency is the fitted concentration of half-maximal effect
- conditionContext: P. falciparum in erythrocytes, SYBR Green DNA, 72 h; series mostly up to 28.7 µM
Records with an inconclusive call do not appear. Calls of active or inactive are those of the source. Calls come from the whole dose curve; as a rule, active = well fitted inhibition curve with a large enough effect; inconclusive = small, poorly fitted or top-dose-only effect; inactive = flat fitted curve, though single readings scatter.
measuredProperty: Potency

Examples from the recorded data:
molecule	valueMeasured
CCCC(=O)O[C@]1(C(=O)CCl)[C@H](C)C[C@@H]2[C@H]3CCC4=CC(=O)C=C[C@]4(C)[C@@]3(F)C(=O)C[C@@]21C	4780 nM (active)
Cc1cc(C(=O)NNCc2ccccc2)no1	inactive
CCCCCCCCCCCCCCCC(=O)OCC(COC(=O)CCCCCCCCCCCCCCC)OC(=O)CCCCCCCCCCCCCCC	inactive
CC(O)CO (centres undefined)	inactive
CCCCC(CC)COC(=O)CC(C(=O)OCC(CC)CCCC)S(=O)(=O)O (centres undefined)	inactive

(Q) Item: "C[C@]12O[C@H](C[C@]1(O)CO)n1c3ccccc3c3c4c(c5c6ccccc6n2c5c31)CNC4=O" Test system: CP192 Read-out: Potency Value: ?
(A) 379 nM (active)

(Q) Item: "CC(C)=O" Test system: CP192 Read-out: Potency Value: ?
(A) inactive

(Q) Item: "Nc1ncnc2c1ncn2[C@@H]1O[C@H](COP(=O)(O)OP(=O)(O)OP(=O)(O)O)[C@@H](O)[C@H]1O" Test system: CP192 Read-out: Potency Value: ?
(A) inactive

(Q) Item: "CCN(CC)Cc1cc(Nc2ccnc3cc(Cl)ccc23)ccc1O" Test system: CP192 Read-out: Potency Value: ?
(A) 161 nM (active)

(Q) Item: "O=C1C(=O)c2ncccc2-c2cccnc21" Test system: CP192 Read-out: Potency Value: ?
(A) 953 nM (active)

(Q) Item: "C[C@]12CCC(=O)C=C1CC[C@@H]1[C@@H]2[C@@H](O)C[C@@]2(C)[C@H]1CC[C@]2(O)C(=O)COP(=O)(O)O" Test system: CP192 Read-out: Potency Value: ?
(A) inactive

(Q) Item: CCCCCCC(O)C/C=C/CCCCCCCC(=O)O (centres undefined) Test system: CP192 Read-out: Potency Value: ?
(A) inactive

(Q) Item: "COC(=O)[C@H]1[C@H]2C[C@@H]3c4[nH]c5ccccc5c4CCN3C[C@H]2C[C@@H](OC(=O)c2cc(OC)c(OC)c(OC)c2)[C@@H]1OC" Test system: CP192 Read-out: Potency Value: ?
(A) 338 nM (active)

(Q) Item: "CC[N+](C)(C)Cc1ccccc1Br" Test system: CP192 Read-out: Potency Value: ?
(A) inactive

(Q) Item: CO[C@H](C(=O)[C@@H](O)[C@@H](C)O)C1Cc2cc3cc(O[C@H]4C[C@@H](O[C@H]5C[C@@H](O)[C@H](O)[C@@H](C)O5)[C@@H](O)[C@@H](C)O4)c(C)c(O)c3c(O)c2C(=O)[C@H]1O[C@H]1C[C@@H](O[C@H]2C[C@@H](O[C@H]3C[C@](C)(O)[C@H](O)[C@@H](C)O3)[C@H](O)[C@@H](C)O2)[C@H](O)[C@@H](C)O1 (some centres undefined) Test system: CP192 Read-out: Potency Value: ?
(A) 2130 nM (active)

(Q) Item: Cc1ccccc1OCC(O)CNCCOc1ccc(C(N)=O)cc1 (centres undefined) Test system: CP192 Read-out: Potency Value: ?
(A) inactive

(Q) Item: "O=C(O)CCC(=O)C(=O)O" Test system: CP192 Read-out: Potency Value: ?
(A) inactive

(Q) Item: "O=S(=O)(O)c1ccc2c(N=Nc3ccc(S(=O)(=O)O)c4ccccc34)c(O)c(S(=O)(=O)O)cc2c1" Test system: CP192 Read-out: Potency Value: ?
(A) inactive

(Q) Item: "O=C(COc1ccc(Cl)cc1)OCCNC12CC3CC(CC(C3)C1)C2" Test system: CP192 Read-out: Potency Value: ?
(A) inactive

(Q) Item: "CC1=C(/C=C/C(C)=C/C=C/C(C)=C/C=C/C=C(C)/C=C/C=C(C)/C=C/C2=C(C)C(=O)CCC2(C)C)C(C)(C)CCC1=O" Test system: CP192 Read-out: Potency Value: ?
(A) inactive

(Q) Item: CC1=CCC(C(C)(C)O)CC1 (centres undefined) Test system: CP192 Read-out: Potency Value: ?
(A) inactive

(Q) Item: "Nc1c(N=Nc2ccc(-c3ccc(N=Nc4cc(S(=O)(=O)O)c5ccccc5c4N)cc3)cc2)cc(S(=O)(=O)O)c2ccccc12" Test system: CP192 Read-out: Potency Value: ?
(A) inactive

(Q) Item: CC1(C)C(C=C(Cl)Cl)C1C(=O)OCc1cccc(Oc2ccccc2)c1 (centres undefined) Test system: CP192 Read-out: Potency Value: ?
(A) inactive

Where these numbers come from: PubChem BioAssay (NCATS)
